Recorded IC50 values for a group of compounds are listed next.
target: E. cloacae SC 12368 β-lactamase (Enterobacter cloacae, UniProt P05364); assay type: biochemical; conditions: 10 minute incubation of enzyme and inhibitor; nitrocefin substrate; read-out: IC50 (nM) E. cloacea SC12368
Sequence (P05364 whole entry): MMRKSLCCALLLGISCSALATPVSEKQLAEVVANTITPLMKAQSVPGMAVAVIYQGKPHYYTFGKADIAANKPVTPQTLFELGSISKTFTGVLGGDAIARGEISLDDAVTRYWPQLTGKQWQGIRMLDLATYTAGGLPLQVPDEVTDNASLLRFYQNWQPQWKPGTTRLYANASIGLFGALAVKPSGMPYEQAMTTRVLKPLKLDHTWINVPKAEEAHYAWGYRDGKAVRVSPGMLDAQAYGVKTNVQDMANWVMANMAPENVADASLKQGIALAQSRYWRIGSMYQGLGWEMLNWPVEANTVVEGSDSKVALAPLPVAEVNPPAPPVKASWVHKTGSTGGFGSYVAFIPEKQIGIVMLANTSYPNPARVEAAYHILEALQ

Worked examples, 5 compounds total:
compound: CC(=O)OCC1=C(C(=O)O)N2C(=O)/C(=C/c3ccccn3)C2SC1 (centres unmarked)
value.measured: > 20000 nM

compound: CC(=O)OCC1=C(C(=O)O)N2C(=O)/C(=C/CO)C2S(=O)(=O)C1 (centres unmarked)
value.measured: > 20000 nM

compound: CC(=O)OCC1=C(C(=O)O)N2C(=O)/C(=C/C(C)(C)C)C2SC1 (centres unmarked)
value.measured: > 20000 nM

compound: CC(=O)OCC1=C(C(=O)O)N2C(=O)C(=C(Cl)Cl)C2SC1 (centres unmarked)
value.measured: > 20000 nM

compound: CC(=O)OCC1=C(C(=O)O)N2C(=O)C(=C(Br)Br)C2S(=O)(=O)C1 (centres unmarked)
value.measured: > 20000 nM

Given the entry CC(=O)OCC1=C(C(=O)O)N2C(=O)C(=C(Cl)Cl)C2S(=O)(=O)C1 (centres unmarked) , what IC50 was observed with E. cloacae SC 12368 β-lactamase (Enterobacter cloacae, UniProt P05364)? > 20000 nM

Kindly state the measured IC50 obtained for CC(=O)OCC1=C(C(=O)O)N2C(=O)/C(=C/C(=O)OC(C)(C)C)C2SC1 (centres unmarked) with E. cloacae SC 12368 β-lactamase (Enterobacter cloacae, UniProt P05364). > 20000 nM

Enter reported IC50 observed with E. cloacae SC 12368 β-lactamase (Enterobacter cloacae, UniProt P05364) for CON(C)C(=O)/C=C1/C(=O)N2C(C(=O)O)=C(COC(C)=O)CSC12 (centres unmarked) > 20000 nM

====

biological target: Class C β-lactamase of Enterobacter cloacae P99 (Enterobacter cloacae); format: biochemical; details: 10 minute incubation of enzyme and inhibitor; nitrocefin substrate; read-out: IC50 (nM) E. cloacea P99
quantity.kind: IC50 (nM)
// units = nM; emit number, no label

Before answering, review these 2 worked examples.
molecule: CC(=O)OCC1=C(C(=O)O)N2C(=O)/C(=C/c3ccccc3)C2S(=O)(=O)C1 (stereo not shown)
unit.abbreviation: nM
value.measured: 6250

molecule: CC(=O)OCC1=C(C(=O)O)N2C(=O)/C(=C/C(=O)OC(C)(C)C)C2SC1 (stereo not shown)
unit.abbreviation: nM
value.measured: 2500

Turning now to a further record.
Fill in: IC50 of CC(=O)OCC1=C(C(=O)[O-])N2C(=O)/C(=C/c3ccccn3)C2S(=O)(=O)C1.[Na+] (stereo not shown) is ___ 25

====

Listed below: IC50 values for each entry.
molecular target: E. cloacae SC 12368 β-lactamase (Enterobacter cloacae); type: biochemical; settings: 10 minute incubation of enzyme and inhibitor; nitrocefin substrate; read-out: IC50 (nM) E. cloacea SC12368
A number alone suffices; assume nM.

compound: CC(=O)OCC1=C(C(=O)O)N2C(=O)/C(=C/c3ccccc3)C2S(=O)(=O)C1 (stereo not shown) [Compound 7d]
system.under.test: E. cloacae SC 12368 β-lactamase (Enterobacter cloacae)
quantity.kind: IC50
value.measured: 6800

The record that follows has no IC50 shown yet.
What is its IC50 for E. cloacae SC 12368 β-lactamase (Enterobacter cloacae)? Entry: CC(=O)OCC1=C(C(=O)[O-])N2C(=O)/C(=C/c3ccccn3)C2S(=O)(=O)C1.[Na+] (stereo not shown) [Compound 7e] 25
